- target-system: Fibroblast growth factor receptor 1 (Homo sapiens);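 also: values are the mean percent inhibition of FGFR1 across replicate measurements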
- conditions-used: at 1 µM
outcome-measure: inhibition (%)
Respond with the bare value in %.

query: Give me measured inhibition, please, for this compound: CCS(=O)(=O)c1ccc(OC)c(Nc2ncc(-c3cccc(-c4ccccc4F)c3)o2)c1
result: 40

query: Give me measured inhibition, please, for this compound: O=C(Nc1ccc(Oc2ccc3[nH]c(NC(=O)c4ccccc4)nc3c2)cc1)Nc1cc(C(F)(F)F)ccc1F
result: 6.8

query: Give me measured inhibition, please, for this compound: COc1cc(C)c(N(C)C(=O)CN(C)C)cc1Nc1nc(Nc2cccc(F)c2C(N)=O)c2cc[nH]c2n1
result: -3.58

query: Give me measured inhibition, please, for this compound: NC(=O)Cc1ccccc1Oc1nccc(-c2c(-c3ccc(F)cc3)ncn2C2CCNCC2)n1
result: 3.15

query: Give me measured inhibition, please, for this compound: O=C(NCC1CC1)c1ccc(-c2cccc(C(=O)NC3CC3)c2)cc1
result: 8.03

query: Give me measured inhibition, please, for this compound: NS(=O)(=O)c1ccc(N/N=C2\C(=O)Nc3ccc(C(=O)NCCCn4ccnc4)cc32)cc1
result: 4.32

query: Give me measured inhibition, please, for this compound: CN(C)CCOc1ccc(-c2cc(-c3ccc4c(c3)CCC4=NO)c(-c3ccncc3)o2)cc1
result: -0.28

query: Give me measured inhibition, please, for this compound: COc1cc2ncn(-c3cc(OCc4cccs4)c(C(N)=O)s3)c2cc1OC
result: 7.33

query: Give me measured inhibition, please, for this compound: C/C(Nc1ccc(S(N)(=O)=O)cc1)=C1/C(=O)Nc2ccccc21
result: 6.33

Taken from ChEMBL document CHEMBL1961873.
